Would you kindly list pIC50 for each of these compounds?
Keep in mind that pIC50 stands for -log10 of concentration in molar terms.

Write down the reported pIC50 of CCc1c(Sc2cc(OC)ccc2OC)[nH]c2nc(N)nc(N)c12 , test system: Dihydrofolate reductase (Rattus norvegicus, UniProt Q920D2).
5.39

Lookup: pIC50 / Dihydrofolate reductase (Rattus norvegicus, UniProt Q920D2) / CCc1c(Sc2ccccc2)[nH]c2nc(N)nc(N)c12
5.25

====

Target protein (sequence): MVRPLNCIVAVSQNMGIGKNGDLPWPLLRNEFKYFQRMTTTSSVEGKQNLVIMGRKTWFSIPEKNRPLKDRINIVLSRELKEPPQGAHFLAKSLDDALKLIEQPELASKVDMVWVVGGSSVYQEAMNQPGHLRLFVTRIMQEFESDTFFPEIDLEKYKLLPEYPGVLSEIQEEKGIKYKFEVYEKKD
pIC50: −log10 of the molar value.
Use 6 as the dividing line for pIC50, with the line itself on the criterion met side and lower values as criterion not met.

Can CC(C)c1c(Sc2c(Cl)cccc2Cl)[nH]c2nc(N)nc(N)c12 be said to have pIC50 at or above 6?
criterion not met

Test whether the molecule CCCc1c(Sc2c(Cl)cccc2Cl)[nH]c2nc(N)nc(N)c12 records pIC50 of 6 or higher.
criterion not met

Is it the case that CCCc1c(Sc2ccc(C(=O)N[C@@H](CCC(=O)O)C(=O)O)cc2)[nH]c2nc(N)nc(N)c12 has pIC50 reaching or exceeding 6?
criterion met

API: above_or_equal(metric=pIC50, cutoff=6) for item CC(C)c1c(Sc2ccc(Cl)c(Cl)c2)[nH]c2nc(N)nc(N)c12
criterion not met

Could you verify whether the entry CCCc1c(Sc2c(C)cccc2C)[nH]c2nc(N)nc(N)c12 shows pIC50 of no less than 6?
criterion not met

Determine whether this molecule has pIC50 no lower than 6: CC(C)c1c(Sc2ccccc2)[nH]c2nc(N)nc(N)c12
criterion not met
